Test: Water solubility test in distilled water

{"compound": "COc1cc(/C=C/c2ccc(O)cc2)cc(OC)c1 [pterostilbene, Pterostilbene]", "solubility": "~5 µg/mL"}

---

Test: physchem
Conditions: distilled water
Below: a set of entries, each annotated with reported solubility.
value-type: solubility

{"compound": "COc1cc(/C=C/c2ccc(O[C@@H]3O[C@H](CO)[C@@H](O[C@H]4O[C@H](CO)[C@@H](O[C@H]5O[C@H](CO)[C@@H](O)[C@H](O)[C@H]5O)[C@H](O)[C@H]4O)[C@H](O)[C@H]3O)cc2)cc(OC)c1 [pterostilbene triglycoside]", "value-type": "solubility", "experimental-result": "~300000 µg/mL"}
{"compound": "COc1cc(/C=C/c2ccc(O[C@@H]3O[C@H](CO)[C@@H](O)[C@H](O)[C@H]3O)cc2)cc(OC)c1 [pterostilbene monoglycoside]", "value-type": "solubility", "experimental-result": "~60 µg/mL"}
{"compound": "COc1cc(/C=C/c2ccc(O[C@@H]3O[C@H](CO)[C@@H](O[C@H]4O[C@H](CO)[C@@H](O)[C@H](O)[C@H]4O)[C@H](O)[C@H]3O)cc2)cc(OC)c1 [pterostilbene diglycoside]", "value-type": "solubility", "experimental-result": "~13 µg/mL"}
